Data origin, for the record: ChEMBL document CHEMBL3877263

Entries and their microsomal CLint
experiment: Intrinsic clearance in CD1 mouse hepatic microsomes assessed per mg protein up to 30 mins in presence of NADPH by UPLC-MS method; type: ADME; details: liver microsomes, read-out: CLH

Solved entries:
[[record]]
compound = "Cc1cc(C)n2nc(-c3ccc(CCCF)cc3)c(CC(=O)N(C)Cc3cccnc3)c2n1"
recorded_metric = "microsomal CLint"
result_value = "> 1000 µL/min/mg"

[[record]]
compound = "CCCN(C)C(=O)Cc1c(-c2ccc(CCCF)cc2)nn2c(C)cc(C)nc12"
recorded_metric = "microsomal CLint"
result_value = "781 µL/min/mg"

[[record]]
compound = "CCN(CC)C(=O)Cc1c(-c2ccc(CCCF)cc2)nn2c(C)cc(C)nc12"
recorded_metric = "microsomal CLint"
result_value = "865 µL/min/mg"

[[record]]
compound = "Cc1cc(C)n2nc(-c3ccc(CCCF)cc3)c(CC(=O)N3CCCCC3)c2n1"
recorded_metric = "microsomal CLint"
result_value = "931 µL/min/mg"

[[record]]
compound = "CCN(CC)C(=O)Cc1c(-c2ccc(OCCF)cc2)nn2c(C)cc(C)nc12 [DPA-714]"
recorded_metric = "microsomal CLint"
result_value = "408 µL/min/mg"


QUERY: Sample Cc1cc(C)n2nc(-c3ccc(CCCF)cc3)c(CC(=O)N(C)Cc3ccccc3)c2n1 — what was its microsomal CLint?
RESULT: > 1000 µL/min/mg

QUERY: Subsequent entry: Cc1cc(C)n2nc(-c3ccc(CCCF)cc3)c(CC(=O)N(C)CCc3ccccc3)c2n1
RESULT: > 1000 µL/min/mg

QUERY: Subsequent entry: CCCN(CCC)C(=O)Cc1c(-c2ccc(CCCF)cc2)nn2c(C)cc(C)nc12
RESULT: > 1000 µL/min/mg

QUERY: Subsequent entry: Cc1cc(C)n2nc(-c3ccc(CCCF)cc3)c(CC(=O)N(C)Cc3ccccn3)c2n1
RESULT: 947 µL/min/mg
